experiment: decomposition half-life and nitric oxide release in aqueous buffer; format: physicochemical; settings: aqueous buffer; pH 7 and 25° C.
Where a name gives a salt, the structure may show the parent alone.
property: half-life (min)

| compound | endpoint.result |
| --- | --- |
| CSCC[C@H](NC(C)=O)C(=O)N1CCN([N+]([O-])=NO)CC1 [Example V, sodium salt] | 6.9 |
| CCOC(=O)N1CCN([N+]([O-])=NO)CC1 [sodium salt] | 5 |

Attribution: patent US5700830A
